Test system: HCV proteins in Rep5.1 cells (replicon cell line)
Test: Inhibitory activity of HCV: cell-based ELISA in replicon cell line Rep5.1 (decrease of HCV proteins)
Design: species or system hepatitis C virus
Details: Hepatitis C virus, 72 h, Rep5.1 cells, 72 hours with drug, decrease of HCV proteins measured by HCV antibody; Table 1; read-out: Level (IC50 values classified)
Listing of entries alongside the reported IC50.

Previously resolved entries follow.
molecule	IC50
CC(C)=CCCC(C)=CCOC(=O)C1=C(C)NC(=S)NC1	< 1 µM
CC1=C(C(=O)OCCCc2cccs2)C(CO)NC(=S)N1 (stereo not drawn)	1 to 10 µM
CC1=C(C(=O)OCc2ccc(SC(F)(F)F)cc2)CNC(=S)N1	< 1 µM
CC1=C(C(=O)OCc2ccc(Br)s2)CNC(=S)N1	< 1 µM
CC(=O)OCC1NC(=S)NC(C)=C1C(=O)OCCCc1cccs1 (stereo not drawn)	1 to 10 µM

Turning now to a further record.
Input: Test system HCV proteins in Rep5.1 cells (replicon cell line); read-out IC50; what value for CC1=C(C(=O)OCCc2ccc(N3CC=CC3)c([N+](=O)[O-])c2)C(CO)NC(=S)N1 (stereo not drawn) ?
Output: 1 to 10 µM
